biological target: Cannabinoid receptor 1 (Homo sapiens) (UniProt P21554); test: Induction of human CB1 receptor internalization expressed in HEK293 cells at 10 uM relative to CP55940; format: cell-based
Sequence (P21554 whole entry): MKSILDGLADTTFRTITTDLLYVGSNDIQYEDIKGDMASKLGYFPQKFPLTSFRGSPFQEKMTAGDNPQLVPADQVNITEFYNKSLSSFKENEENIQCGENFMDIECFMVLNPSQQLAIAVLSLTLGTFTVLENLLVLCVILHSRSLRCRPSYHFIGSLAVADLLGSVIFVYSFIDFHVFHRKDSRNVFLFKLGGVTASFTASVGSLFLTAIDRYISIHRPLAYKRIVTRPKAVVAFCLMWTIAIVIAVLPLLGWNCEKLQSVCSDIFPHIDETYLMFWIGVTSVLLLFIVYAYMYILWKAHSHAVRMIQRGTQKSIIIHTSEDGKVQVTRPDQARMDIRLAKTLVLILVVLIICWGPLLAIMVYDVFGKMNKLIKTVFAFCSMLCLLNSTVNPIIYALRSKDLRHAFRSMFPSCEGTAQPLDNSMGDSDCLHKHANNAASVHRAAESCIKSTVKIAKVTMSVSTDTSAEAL
Label Y for high-side Activity (at or above 60%) and N for low-side Activity (below it).

>  <mol.smiles>
O=C(OCCCn1c2ccccc2c2cc(C(=O)N3CCCCC3)ccc21)N1CCS(=O)(=O)CC1

>  <classification>
Y

$$$$
>  <mol.smiles>
CCCCCn1c2ccccc2c2cc(C(=O)N3CCOCC3)ccc21

>  <classification>
Y

$$$$
>  <mol.smiles>
CCCCCn1c2ccccc2c2cc(C(=O)NCC(C)(C)C)ncc21

>  <classification>
N

$$$$
>  <mol.smiles>
CCCCCCn1c2ccccc2c2cc(C(=O)N3CCCCC3)ccc21

>  <classification>
Y

$$$$
>  <mol.smiles>
CCCCn1c2ccccc2c2cc(C(=O)N3CCCCC3)ccc21

>  <classification>
Y

$$$$
>  <mol.smiles>
CCCCCn1c2ccccc2c2cc(C(=S)N3CCCCC3)ccc21

>  <classification>
Y

$$$$
>  <mol.smiles>
CCCCCn1c2ccccc2c2cc(C(=O)N3CCCCC3)ccc21

>  <classification>
Y

$$$$
>  <mol.smiles>
COCCCn1c2ccccc2c2cc(C(=O)N3CCCCC3)ccc21

>  <classification>
Y

$$$$
>  <mol.smiles>
CCCCCn1c2ccccc2c2cc(C(=O)N3CCN(C)CC3)ccc21

>  <classification>
Y

$$$$
>  <mol.smiles>
CCCCCn1c2ccccc2c2cc(C(=O)N3CCS(=O)(=O)CC3)ccc21

>  <classification>
N

$$$$
>  <mol.smiles>
O=C(c1ccc2c(c1)c1ccccc1n2CCCCl)N1CCCCC1

>  <classification>
Y

$$$$
>  <mol.smiles>
CCCCCn1c2ccccc2c2cc(CN3CCCCC3)ccc21

>  <classification>
N

$$$$
>  <mol.smiles>
COC(=O)CCCn1c2ccccc2c2cc(C(=O)N3CCCCC3)ccc21

>  <classification>
N

$$$$
>  <mol.smiles>
O=C(c1ccc2c(c1)c1ccccc1n2Cc1ccncc1)N1CCCCC1

>  <classification>
Y

$$$$
>  <mol.smiles>
CCCCCn1c2ccccc2c2cc(C(=O)N3CCCCC3)ncc21

>  <classification>
Y

$$$$

* * *

assay: Selectivity ratio of Ki for rat CB1 receptor to Ki for human CB2 receptor

>  <mol.smiles>
CCCCCn1c2ccccc2c2cc(C(=O)N3CCS(=O)(=O)CC3)ccc21

>  <Ratio Ki>
1.96

$$$$
>  <mol.smiles>
CCCCn1c2ccccc2c2cc(C(=O)N3CCCCC3)ccc21

>  <Ratio Ki>
0.24

$$$$
>  <mol.smiles>
CCCCCn1c2ccccc2c2cc(C(=O)OCC)ncc21

>  <Ratio Ki>
1.36

$$$$
>  <mol.smiles>
O=C(c1ccc2c(c1)c1ccccc1n2CC1CCOCC1)N1CCCCC1

>  <Ratio Ki>
0.98

$$$$
>  <mol.smiles>
O=C(OCCCn1c2ccccc2c2cc(C(=O)N3CCCCC3)ccc21)N1CCS(=O)(=O)CC1

>  <Ratio Ki>
30.9

$$$$
>  <mol.smiles>
CCCCCCn1c2ccccc2c2cc(C(=O)N3CCCCC3)ccc21

>  <Ratio Ki>
2.51

$$$$
>  <mol.smiles>
CCCCCn1c2ccccc2c2cc(C(=O)OCc3ccncc3)ccc21

>  <Ratio Ki>
0.08

$$$$
>  <mol.smiles>
O=C(c1ccc2c(c1)c1ccccc1n2Cc1cccnc1)N1CCCCC1

>  <Ratio Ki>
1.71

$$$$
>  <mol.smiles>
CCCCCCCn1c2ccccc2c2cc(C(=O)N3CCCCC3)ccc21

>  <Ratio Ki>
1.14

$$$$
>  <mol.smiles>
O=C(c1ccc2c(c1)c1ccccc1n2Cc1ccccn1)N1CCCCC1

>  <Ratio Ki>
1.87

$$$$
>  <mol.smiles>
CCCCCn1c2ccccc2c2cc(C(=O)N3CCOCC3)ccc21

>  <Ratio Ki>
0.71

$$$$
>  <mol.smiles>
CCCCCn1c2ccccc2c2cc(C(=O)N3CCN(C)CC3)ccc21

>  <Ratio Ki>
3.47

$$$$
>  <mol.smiles>
CCCCCn1c2ccccc2c2cc(C(=S)N3CCCCC3)ccc21

>  <Ratio Ki>
0.82

$$$$
>  <mol.smiles>
O=C(c1ccc2c(c1)c1ccccc1n2CCCl)N1CCCCC1

>  <Ratio Ki>
4.55

$$$$
>  <mol.smiles>
CCCCCn1c2ccccc2c2cc(C(=O)c3ccccc3)ccc21

>  <Ratio Ki>
2.88

$$$$
>  <mol.smiles>
O=C(c1ccc2c(c1)c1ccccc1n2CCCCl)N1CCCCC1

>  <Ratio Ki>
1.4

$$$$
>  <mol.smiles>
COCCCn1c2ccccc2c2cc(C(=O)N3CCCCC3)ccc21

>  <Ratio Ki>
8.88

$$$$
>  <mol.smiles>
CCCCCn1c2ccc(C(=O)N3CCCCC3)cc2c2ccc(OC)cc21

>  <Ratio Ki>
1.71

$$$$
>  <mol.smiles>
CCCCCn1c2ccccc2c2cc(C(=O)NN3CCCCC3)ncc21

>  <Ratio Ki>
2.07

$$$$
>  <mol.smiles>
CCOC(=O)CCn1c2ccccc2c2cc(C(=O)N3CCCCC3)ccc21

>  <Ratio Ki>
3.79

$$$$
>  <mol.smiles>
CCCn1c2ccccc2c2cc(C(=O)N3CCCCC3)ccc21

>  <Ratio Ki>
1.15

$$$$
>  <mol.smiles>
CCCCCn1c2ccccc2c2cc(C(=O)CN3CCN(C)CC3)ccc21

>  <Ratio Ki>
3.78

$$$$
>  <mol.smiles>
CCCCCn1c2ccccc2c2cc(C(=O)NC34CC5CC(CC(C5)C3)C4)ccc21

>  <Ratio Ki>
5.03

$$$$
>  <mol.smiles>
CCCCCn1c2ccccc2c2cc(CN3CCCCC3)ccc21

>  <Ratio Ki>
0.33

$$$$
>  <mol.smiles>
CCCCCn1c2ccccc2c2cc(C(=O)N3CCCCC3)ncc21

>  <Ratio Ki>
3.86

$$$$
>  <mol.smiles>
CCCCCn1c2ccccc2c2cc(CN3CCN(C)CC3)ccc21

>  <Ratio Ki>
0.33

$$$$
>  <mol.smiles>
O=C(c1ccc2c(c1)c1ccccc1n2Cc1ccncc1)N1CCCCC1

>  <Ratio Ki>
4.32

$$$$
>  <mol.smiles>
CCCCCn1c2ccccc2c2cc(C(=O)CN3CCCCC3)ccc21

>  <Ratio Ki>
3.05

$$$$
>  <mol.smiles>
O=C(c1ccc2c(c1)c1ccccc1n2CCCN1CCS(=O)(=O)CC1)N1CCCCC1

>  <Ratio Ki>
9.54

$$$$
>  <mol.smiles>
CS(=O)(=O)NCCCn1c2ccccc2c2cc(C(=O)N3CCCCC3)ccc21

>  <Ratio Ki>
23.7

$$$$
>  <mol.smiles>
CCCCCn1c2ccccc2c2cc(C(=O)N3CCCCC3)ccc21

>  <Ratio Ki>
1.05

$$$$
>  <mol.smiles>
CCCCCn1c2ccccc2c2cc(C(=O)CN3CCS(=O)(=O)CC3)ccc21

>  <Ratio Ki>
1.34

$$$$
>  <mol.smiles>
CCCCCn1c2ccccc2c2cc(C(=O)OCc3ccccn3)ccc21

>  <Ratio Ki>
0.35

$$$$
>  <mol.smiles>
CCCCCn1c2ccccc2c2cc(C(=O)N(CC)CC)ccc21

>  <Ratio Ki>
2.03

$$$$
>  <mol.smiles>
CCCCCn1c2ccccc2c2cc(C(=O)N3CCNCC3)ccc21

>  <Ratio Ki>
0.1

$$$$
>  <mol.smiles>
CCCCCn1c2ccccc2c2cc(C(=O)NCC(C)(C)C)ncc21

>  <Ratio Ki>
1.65

$$$$
>  <mol.smiles>
COC(=O)CCCn1c2ccccc2c2cc(C(=O)N3CCCCC3)ccc21

>  <Ratio Ki>
8.88

$$$$
>  <mol.smiles>
CN(C)CCCn1c2ccccc2c2cc(C(=O)N3CCCCC3)ccc21

>  <Ratio Ki>
5.92

$$$$
